# Skin SDF1 mRNA listing for each entry below
Tested on: naturally aged mice
experiment.summary: Anti-aging evaluation in naturally aged mice, Example 31, Table 55
Assay type: in vivo, mouse
details: skin, untreated = 1.0

{"columns": ["compound", "Skin SDF1 mRNA"],
 "data": [
  ["C=C1CC[C@@H]2[C@](C)(CO)[C@H](O)CC[C@@]2(C)[C@@H]1C/C=C1/C(=O)OC[C@H]1O [LX-6800, Andrographolide]", "2.0 fold"],
  ["O=C1C2CCN(CC2)C1(CO)COCc1ccccc1 (stereo not drawn) [LX-5711]", "1.8 fold"],
  ["COc1cc(OC)cc(N(CCNC(C)C)c2ccc3ncc(-c4cnn(C)c4)nc3c2)c1 [LX-1903, Erdafitinib]", "1.4 fold"]
]}

----------
Tested on: naturally aged mice
experiment.summary: Anti-aging evaluation in naturally aged mice, Example 31, Table 55
Type: in vivo, mouse
details: joint, untreated = 1.0
Parameter: Joint Col2a1 mRNA. Scope: all listed entries.
measured.parameter: Joint Col2a1 mRNA (fold)

{"columns": ["compound", "measured.parameter", "units.of.measure", "test.result"],
 "data": [
  ["COC[C@]1(CO)C(=O)[C@H]2CC[N@]1[C@H](C)C2 [LX-5731]", "Joint Col2a1 mRNA", "fold", 2.7],
  ["O=C(O)c1cc(/N=N/c2ccc(S(=O)(=O)Nc3ccccn3)cc2)ccc1O [LX-1302, Sulfasalazine]", "Joint Col2a1 mRNA", "fold", 2.5],
  ["Fc1ccc(-n2cc(CCCCN3CCC4(CC3)OCc3ccccc34)c3ccccc32)cc1 [LX-1102, Siramesine]", "Joint Col2a1 mRNA", "fold", 1.7],
  ["C[C@@H](C(=O)Nc1ccc(Cl)cc1)[C@H]1CC[C@@H](c2ccnc3ccc(F)cc32)CC1 [LX-8805, Linrodostat]", "Joint Col2a1 mRNA", "fold", 2.6],
  ["Cc1[nH]nc(C(F)(F)F)c1Cc1sc2c(c1C(=O)N1C[C@](C)(O)CO1)c(=O)n(C)c(=O)n2C(C)C [LX-3203]", "Joint Col2a1 mRNA", "fold", 1.6],
  ["CO[C@]1(C(=O)N[C@@H](C)c2ccc(-n3cc(F)cn3)nc2)CC[C@H](c2nc(C)cc(Nc3cc(C)[nH]n3)n2)CC1 [LX-1902, Pralsetinib]", "Joint Col2a1 mRNA", "fold", 1.5],
  ["S=C(N/N=C1\\CCCc2cccnc21)N1CCN(c2ccccn2)CC1 [LX-801]", "Joint Col2a1 mRNA", "fold", 2.7],
  ["C[C@@H](Nc1nc(N[C@H](C)C(F)(F)F)nc(-c2cccc(Cl)n2)n1)C(F)(F)F [LX-8726, Vorasidenib]", "Joint Col2a1 mRNA", "fold", 2.4],
  ["[2H]C12CCN(CC1)C(CO)(COC)C2=O (centres unmarked) [LX-5722]", "Joint Col2a1 mRNA", "fold", 2.1],
  ["Cc1oncc1C(=O)Nc1ccc(C(F)(F)F)cc1 [LX-1603, Leflunomide]", "Joint Col2a1 mRNA", "fold", 2.3],
  ["CCn1c(C#CCNc2ccccc2)cc2cc(CNC)ccc21 [LX-905]", "Joint Col2a1 mRNA", "fold", 2.3],
  ["CC12CCN(CC1)C(CNC(=O)C(F)(F)F)C2=O (centres unmarked) [LX-5706]", "Joint Col2a1 mRNA", "fold", 1.9],
  ["Cc1nnc(-c2cc(C(=O)N3CCC(c4ccc(C#N)cc4)CC3)c(C)cc2C2CCC2)[nH]1 [LX-305]", "Joint Col2a1 mRNA", "fold", 2.6],
  ["O=C1C2CCN(CC2)C1(CO)COCc1ccccc1 (centres unmarked) [LX-5711]", "Joint Col2a1 mRNA", "fold", 2.3]
]}

----------
Test system: naturally aged mice
experiment.summary: Anti-aging evaluation in naturally aged mice, Example 31, Table 55;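 also: Vehicle-dosed control mice received solution alone at matching volume, values compare test-compound-treated aged mice against that control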
Assay type: in vivo, mouse
details: liver, untreated = 100%
The label is true (1) for Liver p16 mRNA below 60% and false (0) for Liver p16 mRNA equal to or exceeding 60%.

{"columns": ["compound", "cat"],
 "data": [
  ["S=C(N/N=C1\\CCCc2cccnc21)N1CCN(c2ccccn2)CC1", "true (1)"],
  ["COC[C@]1(CO)C(=O)[C@H]2CC[N@]1[C@H](C)C2", "true (1)"],
  ["[2H]C12CCN(CC1)C(CO)(COC)C2=O (centres unmarked)", "true (1)"],
  ["Fc1ccc(-n2cc(CCCCN3CCC4(CC3)OCc3ccccc34)c3ccccc32)cc1", "true (1)"],
  ["CC/C=C\\C/C=C\\C/C=C\\C/C=C\\C/C=C\\C/C=C\\CCC(=O)O", "false (0)"],
  ["NC(=O)c1ncn([C@@H]2O[C@H](CO)[C@@H](O)[C@H]2O)n1", "false (0)"],
  ["Cc1nnc(-c2cc(C(=O)N3CCC(c4ccc(C#N)cc4)CC3)c(C)cc2C2CCC2)[nH]1", "false (0)"]
]}
